Entries and their pIC50 values follow.
- assay protocol: Inhibition of trypsin-like activity of 20S proteasome in human erythrocytes
Residues, ends and D or L forms follow the SMILES beside them. *: point of attachment. Cbz = O=C(OCc1ccccc1)*
# pIC50: negative log10 of molar concentration; output just the value

Below, 4 molecules whose answers are already recorded.
INSERT INTO assay_data (molecule, reported) VALUES
  ('CC[C@H](C)[C@@H]1C(=O)O[C@H]1C(=O)N[C@H]1C[C@H]1C[C@H](NC(=O)[C@H](C)N)C(=O)OCc1ccccc1', 6.35),
  ('CC[C@H](C)[C@@H]1C(=O)O[C@H]1C(=O)N[C@H]1C[C@H]1C[C@H](NC(=O)[C@H](C)N)C(=O)O [BELACTOSIN A]', 5.31),
  ('CC[C@H](C)[C@@H]1C(=O)O[C@H]1C(=O)N[C@H]1C[C@H]1C[C@H](NC(=O)[C@H](C)NC(=O)CCCCCNS(=O)(=O)c1cccc2c(N(C)C)cccc12)C(=O)OCc1ccccc1', 5.68),
  ('CC(C)C[C@@H](C=O)NC(=O)[C@H](CC(C)C)NC(=O)[C@H](CC(C)C)NC(=O)OCc1ccccc1 [MG-132] (Cbz-Leu-Leu-Leu-aldehyde)', 5.68);

Give the reported pIC50 for this molecule. CC(C)[C@H](O)[C@]12NC(=O)[C@H](C)[C@@H]1OC2=O
6.16

====

- assay protocol: Inhibition of PGPH catalytic activity of 20S proteasome in human erythrocytes
Residues, ends and D or L forms follow the SMILES beside them. *: point of attachment. Cbz = O=C(OCc1ccccc1)*
Entries and their IC50 values follow.
The response must be a number in µM with no trailing unit.

INSERT INTO measurements (molecule, reported) VALUES
  ('CC[C@H](C)[C@@H]1C(=O)O[C@H]1C(=O)N[C@H]1C[C@H]1C[C@H](NC(=O)[C@H](C)N)C(=O)O', 14),
  ('CC[C@H](C)[C@@H]1C(=O)O[C@H]1C(=O)N[C@H]1C[C@H]1C[C@H](NC(=O)[C@H](C)N)C(=O)OCc1ccccc1', 3.7),
  ('CC(C)C[C@@H](C=O)NC(=O)[C@H](CC(C)C)NC(=O)[C@H](CC(C)C)NC(=O)OCc1ccccc1 [MG-132] (Cbz-Leu-Leu-Leu-aldehyde)', 0.12),
  ('CC[C@H](C)[C@@H]1C(=O)O[C@H]1C(=O)N[C@H]1C[C@H]1C[C@H](NC(=O)[C@H](C)NC(=O)CCCCCNS(=O)(=O)c1cccc2c(N(C)C)cccc12)C(=O)OCc1ccccc1', 0.15);

Now for the molecule whose IC50 we want.
Give the reported IC50 for this molecule. CC(C)[C@H](O)[C@]12NC(=O)[C@H](C)[C@@H]1OC2=O
8.3
